Experiment Summary: AUC (0 to infinity) in normally fed BALB/c mouse at 10 mg/kg, iv
Assay type: ADME, organism-based
Set-up: time infinity, dose 10 mg/kg, route intravenous
Test Settings: plasma
Metric Name: AUC(0-inf) (ng·h/mL)
Express it in ng·h/mL; write the number only.

I'd like to know its AUC(0-inf). The molecule in question is NC[C@H]1O[C@H](O[C@H]2[C@H](O)[C@@H](O[C@H]3O[C@H](CO)[C@@H](O)[C@H](N)[C@H]3O)[C@H](N)C[C@@H]2N)[C@H](N)C[C@@H]1O [TOBRAMYCIN] 11500

* * *

Experiment Summary: Cmax in 15 hrs fasted BALB/c mouse at 50 mg/kg, po
Assay type: ADME, organism-based
Set-up: dose 50 mg/kg, route oral
Test Settings: in vivo
Metric Name: Cmax (ng/mL)
Express it in ng/mL; write the number only.

I'd like to know its Cmax. The compound in question is NC[C@H]1O[C@H](O[C@H]2[C@H](O)[C@@H](O[C@H]3O[C@H](CO)[C@@H](O)[C@H](N)[C@H]3O)[C@H](N)C[C@@H]2N)[C@H](N)C[C@@H]1O 7800

* * *

Experiment Summary: AUClast in normally fed BALB/c mouse at 10 mg/kg, im
Assay type: ADME, organism-based
Set-up: time 0 - last, dose 10 mg/kg, route intramuscular
Test Settings: plasma
Metric Name: AUC(0-t) (ng·h/mL)
Express it in ng·h/mL; write the number only.

I'd like to know its AUC(0-t). The compound in question is NC[C@H]1O[C@H](O[C@H]2[C@H](O)[C@@H](O[C@H]3O[C@H](CO)[C@@H](O)[C@H](N)[C@H]3O)[C@H](N)C[C@@H]2N)[C@H](N)C[C@@H]1O 11000

* * *

Experiment Summary: Tmax in 15 hrs fasted BALB/c mouse at 50 mg/kg, po
Assay type: ADME, organism-based
Parameters: dose 50 mg/kg, route oral
Test Settings: in vivo
Metric Name: Tmax

I'd like to know its Tmax. The molecule in question is NC[C@H]1O[C@H](O[C@H]2[C@H](O)[C@@H](O[C@H]3O[C@H](CO)[C@@H](O)[C@H](N)[C@H]3O)[C@H](N)C[C@@H]2N)[C@H](N)C[C@@H]1O 15 min

* * *

Experiment Summary: Tmax in normally fed BALB/c mouse at 10 mg/kg, iv
Type: ADME, organism-based
Parameters: dose 10 mg/kg, route intravenous
Test Settings: in vivo
Metric Name: Tmax

I'd like to know its Tmax. The molecule in question is NC[C@H]1O[C@H](O[C@H]2[C@H](O)[C@@H](O[C@H]3O[C@H](CO)[C@@H](O)[C@H](N)[C@H]3O)[C@H](N)C[C@@H]2N)[C@H](N)C[C@@H]1O 5 min

* * *

Experiment Summary: Tmax in normally fed BALB/c mouse at 10 mg/kg, im
Format: ADME, organism-based
Parameters: dose 10 mg/kg, route intramuscular
Test Settings: in vivo
Metric Name: Tmax

I'd like to know its Tmax. The compound in question is NC[C@H]1O[C@H](O[C@H]2[C@H](O)[C@@H](O[C@H]3O[C@H](CO)[C@@H](O)[C@H](N)[C@H]3O)[C@H](N)C[C@@H]2N)[C@H](N)C[C@@H]1O 15 min
